Taken from ChEMBL document CHEMBL4350981.

Tested on: Staphylococcus aureus
assay_summary: Antibacterial activity against methicillin-resistant Staphylococcus aureus
Format: functional
property_label: MIC

CC[C@@H](C(=O)[C@@H](C)[C@@H](O)[C@H](C)[C@@H]1O[C@@H]([C@@H](CC)C(=O)OC[C@H]2O[C@@H](n3cc(F)c(=O)[nH]c3=O)C[C@@H]2O)CC[C@@H]1C)[C@H]1O[C@]2(C=C[C@@H](O)[C@]3(CC[C@@](C)([C@H]4CC[C@](O)(CC)[C@H](C)O4)O3)O2)[C@H](C)C[C@@H]1C | 8.17 to 32.7 µg/mL
CC[C@@H](C(=O)[C@@H](C)[C@@H](O)[C@H](C)[C@@H]1O[C@@H]([C@@H](CC)C(=O)Nc2ccccc2)CC[C@@H]1C)[C@H]1O[C@]2(C=C[C@@H](O)[C@]3(CC[C@@](C)([C@H]4CC[C@](O)(CC)[C@H](C)O4)O3)O2)[C@H](C)C[C@@H]1C | 4 µg/mL
CC[C@@H](C(=O)[C@@H](C)[C@@H](O)[C@H](C)[C@@H]1O[C@@H]([C@@H](CC)C(=O)O)CC[C@@H]1C)[C@H]1O[C@]2(C=C[C@@H](O)[C@]3(CC[C@@](C)([C@H]4CC[C@](O)(CC)[C@H](C)O4)O3)O2)[C@H](C)C[C@@H]1C [SALINOMYCIN] | 1 to 16 µg/mL

Query: Can you look up the measured MIC of "CC[C@@H](C(=O)[C@@H](C)[C@@H](O)[C@H](C)[C@@H]1O[C@@H]([C@@H](CC)C(=O)OCC(F)(F)F)CC[C@@H]1C)[C@H]1O[C@]2(C=C[C@@H](O)[C@]3(CC[C@@](C)([C@H]4CC[C@](O)(CC)[C@H](C)O4)O3)O2)[C@H](C)C[C@@H]1C" for me?
Result: 0.5 to 1 µg/mL
